Dear all, this message contains Kd results, target or system full-length galectin-3 (Homo sapiens).
Counter-ions that a name gives are not always drawn.
property.label: Kd

molecule: NC1CCN(c2nc3c(cc2F)c(=O)c(C(=O)O)cn3-c2ccc(F)cc2F)C1 (stereo not drawn) [Formula X, Tosufloxacin tosylate]
result: 5 to 7 µM

molecule: Cc1c(O)cccc1C(=O)N[C@@H](CSc1ccccc1)[C@H](O)CN1C[C@H]2CCCC[C@H]2C[C@H]1C(=O)NC(C)(C)C [Formula Y, Nelfinavir mesylate]
result: ~90 µM

molecule: CN(C)CCOc1ccc(/C(=C(/CCCl)c2ccccc2)c2ccccc2)cc1 [Formula Z, Toremifene citrate]
result: ~35 µM

----------
# target.system: C-terminal (aa 115-250) Galectin-3 (Homo sapiens, UniProt P17931)
# Sequence (P17931 115-250): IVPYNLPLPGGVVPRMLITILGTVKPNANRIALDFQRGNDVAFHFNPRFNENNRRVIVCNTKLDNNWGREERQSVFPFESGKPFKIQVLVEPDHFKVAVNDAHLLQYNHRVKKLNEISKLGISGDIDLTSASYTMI
pKd: −log10 of the molar value. Structures can show the parent of a compound that is named as a salt.

compound: NC1CCN(c2nc3c(cc2F)c(=O)c(C(=O)O)cn3-c2ccc(F)cc2F)C1 (stereo not shown) [Formula X, Tosufloxacin tosylate]
target.system: C-terminal (aa 115-250) Galectin-3 (Homo sapiens, UniProt P17931)
pKd: 5.15 to 5.30

Hello, the source for this data is patent US20260232644A1, in case you need it.
